target-or-test-system: FKBP (Homo sapiens)
Sequence (P62942 whole entry): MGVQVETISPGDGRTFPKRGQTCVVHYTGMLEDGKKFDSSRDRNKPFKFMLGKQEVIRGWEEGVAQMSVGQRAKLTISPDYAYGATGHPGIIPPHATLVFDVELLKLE
assay-text: two-dimensional 15N/1H NMR correlation titration, dissociation constant
Assay type: binding
Set-up: made in house; host or cells: recombinant
pKd: −log10 of the molar value.
reported-endpoint: pKd

Worked examples, 3 compounds total:
>>> test_result("O=C(Nc1ccc(O)cc1)c1ccccc1O")
3.10
>>> test_result("Cc1cc(C(=O)Nc2ccc(O)cc2)ccc1O")
3.30
>>> test_result("O=C(Nc1ccc(O)cc1)c1ccccc1")
3.22

1: O=C(Nc1ccc(O)cc1)c1ccc(O)cc1
2: O=C(Nc1ccccc1)c1ccc(O)cc1
Could you point out whether the larger pKd belongs to 1 or to 2 ? Your answer should be the label of the entry you select.
1
